Source listed as patent US20090298820A1.

Here's a batch of compounds along with measured pIC50 for UniProt:P48736.
Sequence (P48736 whole entry, species assumed): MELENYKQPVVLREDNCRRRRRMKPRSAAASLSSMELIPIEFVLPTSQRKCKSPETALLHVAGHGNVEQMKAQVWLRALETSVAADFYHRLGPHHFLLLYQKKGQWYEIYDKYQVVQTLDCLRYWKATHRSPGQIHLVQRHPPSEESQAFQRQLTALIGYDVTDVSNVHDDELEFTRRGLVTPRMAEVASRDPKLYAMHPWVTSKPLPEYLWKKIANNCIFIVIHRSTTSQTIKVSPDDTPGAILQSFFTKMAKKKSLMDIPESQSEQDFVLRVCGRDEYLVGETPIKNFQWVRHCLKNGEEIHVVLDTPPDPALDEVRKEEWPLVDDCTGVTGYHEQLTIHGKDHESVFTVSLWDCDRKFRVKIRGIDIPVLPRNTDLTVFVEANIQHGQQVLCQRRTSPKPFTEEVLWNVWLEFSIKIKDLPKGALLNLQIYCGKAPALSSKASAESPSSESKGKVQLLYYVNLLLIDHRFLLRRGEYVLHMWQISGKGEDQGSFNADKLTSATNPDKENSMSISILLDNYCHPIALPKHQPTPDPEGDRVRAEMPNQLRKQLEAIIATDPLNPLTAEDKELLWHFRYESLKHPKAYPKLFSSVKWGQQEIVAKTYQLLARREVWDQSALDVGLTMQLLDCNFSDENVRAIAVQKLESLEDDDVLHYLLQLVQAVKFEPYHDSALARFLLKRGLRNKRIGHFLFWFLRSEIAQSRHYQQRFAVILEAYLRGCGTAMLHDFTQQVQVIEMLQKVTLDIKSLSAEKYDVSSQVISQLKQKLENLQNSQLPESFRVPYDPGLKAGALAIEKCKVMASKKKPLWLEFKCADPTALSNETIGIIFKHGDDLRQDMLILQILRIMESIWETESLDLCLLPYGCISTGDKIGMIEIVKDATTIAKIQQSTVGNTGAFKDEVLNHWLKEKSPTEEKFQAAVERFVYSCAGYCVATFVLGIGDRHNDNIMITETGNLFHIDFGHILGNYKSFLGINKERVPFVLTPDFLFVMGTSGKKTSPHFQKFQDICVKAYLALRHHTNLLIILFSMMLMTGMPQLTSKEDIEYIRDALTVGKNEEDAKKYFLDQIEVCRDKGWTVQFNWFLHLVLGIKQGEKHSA
// pIC50: -log10(molar conc.)

INSERT INTO assay_data (compound, parameter, measured_number) VALUES
  ('C[C@@H]1CN(C(=O)C2CCN(c3ccnc4c3c(/C=C3\Oc5cccc(O)c5C3=O)cn4C)CC2)C[C@H](C)O1 [Compound 302]', 'pIC50', 6.40),
  ('CNC(=O)Nc1ccc2c(c1)C(=O)/C(=C/c1cn(C)c3nccc(N4CC5CCC(C4)O5)c13)O2 [Compound 131]', 'pIC50', 6.25),
  ('CON(C)C(=O)c1ccc(-c2ccnc3c2c(/C=C2\Oc4cccc(O)c4C2=O)cn3C)cc1 [Compound 196]', 'pIC50', 7.18),
  ('Cn1cc(C=C2Oc3ccc(NC(=O)Nc4cccnc4)cc3C2=O)c2c(N3CCC(C(=O)NC4CCS(=O)(=O)C4)CC3)ccnc21 (stereo not drawn) [Compound 212]', 'pIC50', 5.28),
  ('Cn1cc(/C=C2\Oc3cc(O)cc(O)c3C2=O)c2c(C3=CCNCC3)ccnc21 [Compound 78]', 'pIC50', 6.50);

Could you share what pIC50 was measured for CNC(=O)Nc1ccc2c(c1)C(=O)/C(=C/c1cn(C)c3nccc(N4CC5CCC4CO5)c13)O2 (stereo not drawn) [Compound 279] , tested on UniProt:P48736?
6.19

Form: Entry = Cn1cc(/C=C2\Oc3ccc(NC(=O)Nc4cccnc4)cc3C2=O)c2c(N3CC4CCC3CO4)ccnc21 (stereo not drawn) [Compound 277] | System = UniProt:P48736 | pIC50 = ____
5.59

UniProt:P48736 / pIC50 / CN(C)C1CCN(c2ccnc3c2c(/C=C2\Oc4cccc(O)c4C2=O)cn3C)C1 (stereo not drawn) [Compound 112] : value?
6.24

Fill in the recorded pIC50 for this compound, with UniProt:P48736 as test system: Cn1cc(/C=C2\Oc3cccc(O)c3C2=O)c2c(N3CC4COC(C3)O4)ccnc21 (stereo not drawn) [Compound 165]
6.84

What reported pIC50 corresponds to CN(C)C(=O)C1CCN(c2ccnc3c2c(/C=C2\Oc4ccc(NC(=O)NC5CCN(C(=O)C(F)(F)F)CC5)cc4C2=O)cn3C)CC1 [Compound 300] on UniProt:P48736?
5.45

For UniProt:P48736, provide pIC50 of CN(C)CCNC(=O)C1CCN(c2ccnc3c2c(/C=C2\Oc4ccc(NC(=O)Nc5cccnc5)cc4C2=O)cn3C)CC1 [Compound 261] please.
6.05

Recorded pIC50 for Cn1cc(/C=C2\Oc3cc(O)cc(O)c3C2=O)c2c(-c3ccc(NS(C)(=O)=O)cc3)ccnc21 [Compound 36] with UniProt:P48736, please?
7.44

Lab note: need pIC50 for Cn1cc(/C=C2\Oc3cc(O)cc(O)c3C2=O)c2c(-c3ccc(O)cc3)ccnc21 [Compound 19] on UniProt:P48736, anyone have it?
7.46

Recall the recorded pIC50 for Cn1cc(/C=C2\Oc3ccc(NC(=O)Nc4ccc(CN5CCCCC5)cc4)cc3C2=O)c2c(N3CC4CCC(C3)O4)ccnc21 [Compound 278] with UniProt:P48736 and state it.
6.35

* * *

molecular target: mTOR (Homo sapiens, UniProt P42345); assay: mTOR enzyme assay (DELFIA format, His6-S6K substrate); format: biochemical; conditions: read-out: mTOR Kinase Median IC50
Each entry below lists one item and its recorded IC50 value.
Respond with the bare value in nM.

INSERT INTO assay_data (compound, subject_of_test, parameter, measured_number) VALUES
  ('Cn1cc(/C=C2\Oc3cccc(O)c3C2=O)c2c(-c3ccc(N4CCCC4)cc3)ccnc21', 'mTOR (Homo sapiens, UniProt P42345)', 'IC50', 80.5);

What reported IC50 corresponds to Cn1cc(/C=C2\Oc3cccc(O)c3C2=O)c2c(-c3ccc(C(=O)N4CCN(CCO)CC4)cc3)ccnc21 on mTOR (Homo sapiens, UniProt P42345)?
0.4

IC50 of Cn1cc(/C=C2\Oc3ccc(NC(=O)OCCO)cc3C2=O)c2c(-c3ccccc3)ccnc21 on mTOR (Homo sapiens, UniProt P42345)?
58.5

Form field: IC50 recorded for Cn1cc(/C=C2\Oc3ccc(NC(=O)Nc4cccnc4)cc3C2=O)c2c(N3CCC(C(=O)NCCO)CC3)ccnc21 with mTOR (Homo sapiens, UniProt P42345) (enter value)
4.2

GET /values?readout=IC50&system=mTOR (Homo sapiens, UniProt P42345)&item= CCn1cc(/C=C2\Oc3cccc(O)c3C2=O)c2c(-c3ccc(C(=O)N4CCN(CCO)CC4)cc3)ccnc21
4.6
